Assayed target: human MC3R (Homo sapiens, UniProt P41968)
Construct: expressed in transfected cells; host or cells: HEK293/CRE-luc/MC3R
Sequence (P41968 whole entry): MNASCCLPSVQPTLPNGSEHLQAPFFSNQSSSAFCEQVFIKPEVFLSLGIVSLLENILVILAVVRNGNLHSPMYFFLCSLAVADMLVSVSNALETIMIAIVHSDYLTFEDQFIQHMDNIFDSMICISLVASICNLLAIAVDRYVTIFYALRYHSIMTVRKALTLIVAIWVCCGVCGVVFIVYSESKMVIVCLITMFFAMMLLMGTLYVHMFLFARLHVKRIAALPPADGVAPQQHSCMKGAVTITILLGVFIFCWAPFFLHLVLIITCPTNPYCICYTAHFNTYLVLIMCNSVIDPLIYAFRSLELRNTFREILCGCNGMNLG
Test details: cAMP accumulation assay (HTRF), antagonist activity at MC3R
Assay type: cell-based
Condition notes: dose-response fit, MC3R
Experimental: The antagonist activity of exemplary non-naturally occurring melanocortin analogs (SEQ ID NOs: 3, 4, 6, 9-11, 14, 15, and 291-309) at the melanocortin 3 receptor (MC3R) and melanocortin 4 (MC4R) receptor was measured via cAMP accumulation assay, according to the following procedure. […]
Positions of bridges follow the written chain, without caps; N, C: chain ends. No end group written: not given here.
Assay endpoint: Top (%)

// below: answered substances
| Substance | Units text | Top (%) |
| --- | --- | --- |
| Ac-Leu-c(Asp-Pro-Trp-Arg-Trp-Lys)-Val-Pro-NH2 (Ac-LDPWRWKVP-NH2; lactam 2-7; SMILES CC(=O)N[C@@H](CC(C)C)C(=O)N[C@H]1CC(=O)NCCCC[C@@H](C(=O)N[C@H](C(=O)N2CCC[C@H]2C(N)=O)C(C)C)NC(=O)[C@H](Cc2c[nH]c3ccccc23)NC(=O)[C@H](CCCNC(=N)N)NC(=O)[C@H](Cc2c[nH]c3ccccc23)NC(=O)[C@@H]2CCCN2C1=O) [Peptide C2] | % | 0.42 |
| Ac-Leu-c(Asp-Pro-Phe-Phe-Arg-Trp-Lys)-Val-Pro-NH2 (Ac-LDPFFRWKVP-NH2; lactam 2-8; SMILES CC(=O)N[C@@H](CC(C)C)C(=O)N[C@H]1CC(=O)NCCCC[C@@H](C(=O)N[C@H](C(=O)N2CCC[C@H]2C(N)=O)C(C)C)NC(=O)[C@H](Cc2c[nH]c3ccccc23)NC(=O)[C@H](CCCNC(=N)N)NC(=O)[C@H](Cc2ccccc2)NC(=O)[C@H](Cc2ccccc2)NC(=O)[C@@H]2CCCN2C1=O) [Peptide B2] | % | 20.30 |

(1) IPFFRWVP [Peptide B5]
(2) LDPFFRWKVP [Peptide B7]
Hi team, can someone confirm which has the larger Top (%): 1 or 2 ? Thanks. Your answer should be the label attached to the chosen record. 2
(2: 7754.77%, 1: 736.17%)

---

Assayed target: human MC3R (Homo sapiens, UniProt P41968)
Construct: expressed in transfected cells; host or cells: HEK293/CRE-luc/MC3R
Test details: cAMP accumulation assay (HTRF), antagonist activity at MC3R
Format: cell-based
Condition notes: dose-response fit, MC3R
Protocol: The antagonist activity of exemplary non-naturally occurring melanocortin analogs (SEQ ID NOs: 3, 4, 6, 9-11, 14, 15, and 291-309) at the melanocortin 3 receptor (MC3R) and melanocortin 4 (MC4R) receptor was measured via cAMP accumulation assay, according to the following procedure. […]
Positions of bridges follow the written chain, without caps; N, C: chain ends. Non-standard residues stand in square brackets, D forms with d. Residues, ends and D or L forms follow the SMILES beside them. d2Nal = N[C@H](Cc1ccc2ccccc2c1)C(=O)O; Nle = CCCC[C@H](N)C(=O)O
Assay endpoint: Hill Coefficient
Reply with just the number.

| Molecule | Hill Coefficient |
| --- | --- |
| CCCC[C@H](NC(C)=O)C(=O)N[C@@H](CC(=O)O)C(=O)N1CCC[C@H]1C(=O)N[C@H](Cc1ccc2ccccc2c1)C(=O)N[C@@H](CCCNC(=N)N)C(=O)N[C@@H](Cc1c[nH]c2ccccc12)C(=O)N[C@@H](CCCCN)C(=O)N[C@@H](C(=O)N1CCC[C@@H]1C(N)=O)C(C)C [Peptide A1] (Ac-[Nle]DP[d2Nal]RWK[dV][dP]-NH2) | 0.55 |

Here is another molecule to look at.
Provide measured Hill Coefficient value, entry: CCCC[C@H](NC(C)=O)C(=O)N[C@H]1CC(=O)NCCCC[C@@H](C(=O)N2CCC[C@@H]2C(=O)N[C@@H](C(N)=O)C(C)C)NC(=O)[C@H](Cc2c[nH]c3ccccc23)NC(=O)[C@H](CCCNC(=N)N)NC(=O)[C@@H](Cc2ccc3ccccc3c2)NC(=O)[C@H](Cc2c[nH]cn2)NC(=O)[C@@H]2CCCN2C1=O [Peptide D5] (Ac-[Nle]DPH[d2Nal]RWK[dP][dV]-NH2; lactam 2-8) 1.04
